# test.target: Galectin-1 (Homo sapiens)
# Sequence (P09382 whole entry): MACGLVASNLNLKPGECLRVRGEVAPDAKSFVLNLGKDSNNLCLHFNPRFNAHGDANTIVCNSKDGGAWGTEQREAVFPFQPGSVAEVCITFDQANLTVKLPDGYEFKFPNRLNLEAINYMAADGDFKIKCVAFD
# protocol.details: Binding affinity to human recombinant Gal-1 assessed as change in entropy by ITC analysis
observed.property: deltaS (J/mol.K)

Could you share what deltaS was measured for COc1cc(C(=O)OC(C)(C)C)ccc1O[C@@H]1O[C@H](CO)[C@@H](O[C@@H]2O[C@H](CO)[C@H](O)[C@H](O)[C@H]2O)[C@H](O)[C@H]1O , tested on Galectin-1 (Homo sapiens)? -23.1

Ok, now OC[C@H]1O[C@@H](O[C@H]2[C@H](O)[C@@H](O)C(O)O[C@@H]2CO)[C@H](O)[C@@H](O)[C@H]1O (some centres undefined) -28

P = COc1cc(C(=O)OC(C)(C)C)ccc1O[C@@H]1O[C@H](CO)[C@@H](O[C@@H]2O[C@H](CO)[C@H](O)[C@H](OS(=O)(=O)O)[C@H]2O)[C@H](O)[C@H]1O
Q = COc1cc(C(=O)O)ccc1O[C@@H]1O[C@H](CO)[C@@H](O[C@@H]2O[C@H](CO)[C@H](O)[C@H](OS(=O)(=O)O)[C@H]2O)[C@H](O)[C@H]1O
Pick one: P or Q . Which has the bigger deltaS number? Record your answer as the label of the chosen record. Q
